experiment: Brain to plasma partition coefficient, Kp in rat; type: ADME, organism-based
endpoint-name: Kp

>>> recorded_measurement("Cc1cc(O[C@H]2CO[C@H](C)C2)cc(C(=O)Nc2nc(C)cs2)n1")
2.2

---

target: Metabotropic glutamate receptor 5 (Homo sapiens); assay: Negative allosteric modulation of human mGlu5 receptor assessed as inhibition of glutamate induced-calcium mobilization
Sequence (P41594 whole entry): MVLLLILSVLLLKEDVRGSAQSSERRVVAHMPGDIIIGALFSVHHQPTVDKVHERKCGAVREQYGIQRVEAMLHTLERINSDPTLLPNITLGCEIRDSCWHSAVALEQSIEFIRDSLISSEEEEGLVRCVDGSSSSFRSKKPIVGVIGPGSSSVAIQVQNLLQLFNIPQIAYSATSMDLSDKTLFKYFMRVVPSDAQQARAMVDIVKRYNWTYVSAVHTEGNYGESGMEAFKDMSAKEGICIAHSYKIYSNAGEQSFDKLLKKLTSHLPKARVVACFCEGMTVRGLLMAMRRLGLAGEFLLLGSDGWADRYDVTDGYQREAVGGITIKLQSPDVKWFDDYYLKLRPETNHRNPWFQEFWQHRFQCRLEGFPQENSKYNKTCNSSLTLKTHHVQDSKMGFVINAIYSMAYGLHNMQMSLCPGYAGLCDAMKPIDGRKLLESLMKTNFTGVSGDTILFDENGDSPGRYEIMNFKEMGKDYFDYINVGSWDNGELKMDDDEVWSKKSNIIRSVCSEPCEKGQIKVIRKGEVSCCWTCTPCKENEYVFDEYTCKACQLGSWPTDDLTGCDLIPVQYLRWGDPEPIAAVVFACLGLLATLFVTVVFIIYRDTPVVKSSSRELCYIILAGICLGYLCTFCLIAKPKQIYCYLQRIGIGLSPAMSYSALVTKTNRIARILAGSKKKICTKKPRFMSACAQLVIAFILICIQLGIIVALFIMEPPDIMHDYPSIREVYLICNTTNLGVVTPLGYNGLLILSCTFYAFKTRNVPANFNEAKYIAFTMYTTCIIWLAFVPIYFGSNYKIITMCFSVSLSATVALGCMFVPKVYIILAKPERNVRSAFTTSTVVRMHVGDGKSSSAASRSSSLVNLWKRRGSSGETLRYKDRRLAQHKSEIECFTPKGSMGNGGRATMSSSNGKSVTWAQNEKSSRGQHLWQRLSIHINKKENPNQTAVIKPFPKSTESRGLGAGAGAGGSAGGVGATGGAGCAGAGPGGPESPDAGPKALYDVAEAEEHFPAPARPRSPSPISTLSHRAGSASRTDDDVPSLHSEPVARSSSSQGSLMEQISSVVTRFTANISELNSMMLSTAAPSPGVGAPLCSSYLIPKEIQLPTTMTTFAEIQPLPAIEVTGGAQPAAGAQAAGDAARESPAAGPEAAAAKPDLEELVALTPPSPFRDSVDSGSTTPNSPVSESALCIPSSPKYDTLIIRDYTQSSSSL
pIC50: −log10 of the molar value.
endpoint-name: pIC50

>>> recorded_measurement("Cc1cc(O[C@@H]2CCOC2)cc(C(=O)Nc2ccc(F)cn2)n1")
7.42
>>> recorded_measurement("Cc1cc(OC2COC2)cc(C(=O)Nc2ccc(F)cn2)n1")
6.64
>>> recorded_measurement("Cc1cc(OC2CCOCC2)cc(C(=O)Nc2nc(C)cs2)n1")
6.35
>>> recorded_measurement("Cc1cc(O[C@H]2CO[C@H](C)C2)cc(C(=O)Nc2ccc(F)cn2)n1")
6.76
>>> recorded_measurement("Cc1cc(OC2CCCOC2)cc(C(=O)Nc2ccccn2)n1 (configuration not stated)")
6.65
>>> recorded_measurement("Cc1cc(OC2CCCC2)cc(C(=O)Nc2ccccn2)n1")
6.74
>>> recorded_measurement("Cc1cc(OCC2CCO2)cc(C(=O)Nc2ccc(F)cn2)n1 (configuration not stated)")
5.61
>>> recorded_measurement("Cc1cc(OCC2COC2)cc(C(=O)Nc2nc(C)cs2)n1")
6.87
>>> recorded_measurement("Cc1cc(O[C@@H]2CCOC2)cc(C(=O)Nc2ccccn2)n1")
7.64
>>> recorded_measurement("Cc1cc(OCC2CCO2)cc(C(=O)Nc2ccccn2)n1 (configuration not stated)")
6.19
>>> recorded_measurement("Cc1cc(O[C@H]2CO[C@H](C)C2)cc(C(=O)Nc2nc(C)cs2)n1")
7.09
>>> recorded_measurement("Cc1cc(O[C@H]2CCOC2)cc(C(=O)Nc2nc(C)cs2)n1")
6.97
>>> recorded_measurement("Cc1cc(OCC2CCOC2)cc(C(=O)Nc2ccccn2)n1 (configuration not stated)")
6.68
>>> recorded_measurement("Cc1cc(OC2COC2)cc(C(=O)Nc2ccccn2)n1")
7.18
>>> recorded_measurement("COCOc1cc(C)nc(C(=O)Nc2ccccn2)c1")
6.92
>>> recorded_measurement("Cc1cc(OC2CCOCC2)cc(C(=O)Nc2ccc(F)cn2)n1")
5.71
>>> recorded_measurement("CO[C@@H](C)COc1cc(C)nc(C(=O)Nc2nc(C)cs2)c1")
5.98
>>> recorded_measurement("COC[C@H](C)Oc1cc(C)nc(C(=O)Nc2nc(C)cs2)c1")
6.03
>>> recorded_measurement("Cc1cc(OC2CCCC2)cc(C(=O)Nc2nc(C)cs2)n1")
6.83
>>> recorded_measurement("Cc1cc(OC2CS(=O)(=O)C2)cc(C(=O)Nc2nc(C)cs2)n1")
6.41
>>> recorded_measurement("Cc1cc(OC2CCC2)cc(C(=O)Nc2nc(C)cs2)n1")
7.24
>>> recorded_measurement("Cc1cc(OCC2COC2)cc(C(=O)Nc2ccc(F)cn2)n1")
5.37
>>> recorded_measurement("COc1cc(C)nc(C(=O)Nc2ccc(F)cn2)c1")
5.14
>>> recorded_measurement("Cc1cc(OC2CCC2)cc(C(=O)Nc2ccc(F)cn2)n1")
6.74
>>> recorded_measurement("Cc1cc(O[C@H]2CO[C@H](C)C2)cc(C(=O)Nc2nc(C3CC3)cs2)n1")
6.05
>>> recorded_measurement("Cc1cc(OCC2CCCO2)cc(C(=O)Nc2ccc(F)cn2)n1 (configuration not stated)")
5.63
>>> recorded_measurement("Cc1cc(OCC2CCCO2)cc(C(=O)Nc2ccccn2)n1 (configuration not stated)")
6.14
>>> recorded_measurement("Cc1cc(OC2CCCOC2)cc(C(=O)Nc2nc(C)cs2)n1 (configuration not stated)")
6.85
>>> recorded_measurement("Cc1cc(OC2CN(S(C)(=O)=O)C2)cc(C(=O)Nc2nc(C)cs2)n1")
6.30
>>> recorded_measurement("Cc1cc(OCC2CCOC2)cc(C(=O)Nc2nc(C)cs2)n1 (configuration not stated)")
6.70
>>> recorded_measurement("Cc1cc(O[C@H]2CCOC2)cc(C(=O)Nc2ccc(F)cn2)n1")
6.18
>>> recorded_measurement("Cc1cc(OC2CCOCC2)cc(C(=O)Nc2ccccn2)n1")
5.81
>>> recorded_measurement("Cc1cc(OC2CCCC2)cc(C(=O)Nc2ccc(F)cn2)n1")
5.44
>>> recorded_measurement("COCOc1cc(C)nc(C(=O)Nc2nc(C)cs2)c1")
6.99
>>> recorded_measurement("Cc1cc(O[C@H]2CO[C@H](C)C2)cc(C(=O)Nc2nc(C)c(F)s2)n1")
5.89
>>> recorded_measurement("Cc1cc(OC2COC2)cc(C(=O)Nc2nc(C)cs2)n1")
7.29
>>> recorded_measurement("Cc1cc(O[C@@H]2CCOC2)cc(C(=O)Nc2nc(C)cs2)n1")
7.55
>>> recorded_measurement("Cc1cc(OC2CSC2)cc(C(=O)Nc2nc(C)cs2)n1")
7.51
>>> recorded_measurement("Cc1cc(O[C@@H]2CO[C@@H](C)C2)cc(C(=O)Nc2ccc(F)cn2)n1")
5.69
>>> recorded_measurement("Cc1cc(OC2CCCCC2)cc(C(=O)Nc2nc(C)cs2)n1")
5.68
>>> recorded_measurement("CO[C@H](C)COc1cc(C)nc(C(=O)Nc2nc(C)cs2)c1")
6.84
>>> recorded_measurement("Cc1cc(OC2CCCOC2)cc(C(=O)Nc2ccc(F)cn2)n1 (configuration not stated)")
6.30
>>> recorded_measurement("Cc1cc(OC2C[S+]([O-])C2)cc(C(=O)Nc2nc(C)cs2)n1 (configuration not stated)")
6.84
>>> recorded_measurement("Cc1cc(O[C@H]2CCOC2)cc(C(=O)Nc2ccccn2)n1")
6.71
>>> recorded_measurement("Cc1cc(OCC2CCOC2)cc(C(=O)Nc2ccc(F)cn2)n1 (configuration not stated)")
6.15
>>> recorded_measurement("Cc1cc(O[C@@H]2CO[C@H](C)C2)cc(C(=O)Nc2ccc(F)cn2)n1")
6.41
>>> recorded_measurement("Cc1cc(OC2CCCCC2)cc(C(=O)Nc2ccccn2)n1")
5.85
